test system: HDM-specific T cells expanded from PBMCs of HDM-allergic individuals; test: T cell reactivity of peptides: IFN/IL-5 ELISPOT on in vitro expanded HDM-specific T cells; type: cell-based, human; settings: percentage of donors that produced a response against the peptide, 10 μg/mL
reported_endpoint: % responder (%)
Please respond with the number in % and leave the unit unwritten.

For 90 (TKLASGVFLFNSNAM; Immunogenic fragment) [compound 90] , what is its reported % responder?
5

For 116 (LGESVIRAARSSLQY; Immunogenic fragment) [compound 116] then?
15

One more substance: 107 (NEALKTTLNKRPFII; Immunogenic fragment) [compound 107]
5

How about this substance: 147 (LGMQICFDMIFKTPG; Immunogenic fragment) [compound 147]
20

// next record 124 (DINYVFFRSGSIIPI; Immunogenic fragment) [compound 124]
10

---

Tested on: HDM-specific T cells expanded from PBMCs of HDM-allergic individuals
Experiment: T cell reactivity of peptides: IFN/IL-5 ELISPOT on in vitro expanded HDM-specific T cells
Format: cell-based, human
Conditions: percentage of donors that produced a response against the peptide, 10 μg/mL
Description: Each sequence of an “L” cluster was aligned separately using the MEGA software tool with ClustalW. Fifteen-mer peptides overlapping by 10 amino acids were generated and the last 15-mer peptide was added when the sequence length was not divisible by 5, 14,783 unique peptides remained. […]
What % responder was measured for each of the following?
Report only the number, with the unit % understood.

Find the measured % responder: item 99 (AEYHKTIAFDGAWLD; Immunogenic fragment) [compound 99] , target or system HDM-specific T cells expanded from PBMCs of HDM-allergic individuals.
15

Next substance up: 51 (RGIVGEIIRRFEAKG; Immunogenic fragment) [compound 51]
5

Could you do the same for GYAFIMESSSAEHEI (Immunogenic fragment) [Peptide 184, fragment of A0023 Der f] , please?
10

Moving on to LTMLLDWRNLYPRKY (Immunogenic fragment) [Peptide 185, fragment of A0023 Der f]
5

Quick one: 109 (HWNGDILSDWSSMRW; Immunogenic fragment) [compound 109]
25

What would you report for YPRKYAFALPKDSQY (Immunogenic fragment) [Peptide 187, fragment of A0023 Der f] ?
10

// same read-out, input: 134 (TNNMLIIQTKLSIFN; Immunogenic fragment) [compound 134]
5

Same again, this time with 75 (SLRHLFKSFEIIAVE; Immunogenic fragment) [compound 75]
5

---

tested on: HDM-specific T cells expanded from PBMCs of HDM-allergic individuals; assay: T cell reactivity of peptides: IFN/IL-5 ELISPOT on in vitro expanded HDM-specific T cells; format: cell-based, human; conditions: individual peptides 10 μg/mL
Threshold 20 SFC/donor: SFC/donor strictly smaller gives Yes, otherwise No.

Strictly below 20 SFC/donor: is that where SFC/donor of LTMLLDWRNLYPRKY (Immunogenic fragment) [Peptide 185, fragment of A0023 Der f] sits?
Yes

Subsequent entry: 102 (QLHYNLHNLYGFQEA; Immunogenic fragment) [compound 102]
Yes

Continue with 116 (LGESVIRAARSSLQY; Immunogenic fragment) [compound 116]
No

Would you kindly repeat that for 70 (HSKRYLLRLEHFYQR; Immunogenic fragment) [compound 70] ?
Yes

Next: 92 (GPKPEQVVQQYHNLI; Immunogenic fragment) [compound 92]
Yes

What do you get for 137 (HDNTELMKTKDFLLI; Immunogenic fragment) [compound 137] ?
No

// next record 49 (KGIIPGIKVDTGVVT; Immunogenic fragment) [compound 49]
No

Next entry: 136 (DKSKKIHYQFEWKFN; Immunogenic fragment) [compound 136]
Yes

And the next one, 81 (DDGNLISRALPHLGV; Immunogenic fragment) [compound 81] ?
Yes
